Here the recorded Log IC50 is given for each entry.
- System Tested: Phosphodiesterase 4 (Homo sapiens, UniProt P27815+Q08499+Q07343+Q08493)
- Assay Details: Inhibitory concentration against phosphodiesterase 4 (PDE4) in cytosol of human neutrophils
- Type: protein assay
Reply with just the number.

COc1ccc(C2=NN(CCCOc3ccccc3)C(=O)C3CCCCC23)cc1OC (configuration not stated) :: -7.9
CCCN1N=C(c2ccc(OC)c(OC)c2)C2CCCCC2C1=O (configuration not stated) :: -7.8
COc1ccc(C2=NN(C)C(=O)C3CCCCC23)cc1OC (configuration not stated) :: -6.8
COc1ccc(CN2N=C(c3ccc(OC)c(OC)c3)C3CCCCC3C2=O)cc1 (configuration not stated) :: -8.2
COc1ccccc1CN1N=C(c2ccc(OC)c(OC)c2)C2CCCCC2C1=O (configuration not stated) :: -7.7

Query block: What does the record list as Log IC50 for COc1ccc(C2=NN(C3CCCC3)C(=O)C3CCCCC23)cc1OC (configuration not stated) ?
Result block: -8.4

Query block: What does the record list as Log IC50 for COc1ccc(C2=NN(C(C)(C)C)C(=O)C3CCCCC23)cc1OC (configuration not stated) ?
Result block: -7.9

Query block: What does the record list as Log IC50 for COc1ccc(C2=NN(C3CCCCCCC3)C(=O)C3CC=CCC23)cc1OC (configuration not stated) ?
Result block: -9.3

Query block: What does the record list as Log IC50 for COc1ccc(C2=NN(CCCCN(C)C)C(=O)C3CCCCC23)cc1OC (configuration not stated) ?
Result block: -7

Query block: What does the record list as Log IC50 for COc1ccc(C2=NN(CC(=O)c3ccccc3)C(=O)C3CCCCC23)cc1OC (configuration not stated) ?
Result block: -8

---

- System Tested: Phosphodiesterase 4 (Homo sapiens, UniProt P27815+Q08499+Q07343+Q08493)
- Assay Details: Inhibitory concentration against phosphodiesterase 4 (PDE4) in cytosol of human neutrophils
- Format: protein assay
Measured Parameter: Log IC50

Recorded Log IC50, per entry:
COc1ccc(C2=NN(CCN(C)C)C(=O)C3CCCCC23)cc1OC (stereo unspecified) :: -6.5
COc1ccc(C2=NN(CCCO)C(=O)C3CCCCC23)cc1OC (stereo unspecified) :: -7.5
COc1ccc(C2=NN(Cc3cccc(C(=O)O)c3)C(=O)C3CCCCC23)cc1OC (stereo unspecified) :: -7.9
COc1ccc(C2=NN(Cc3ccc(C(=O)O)cc3)C(=O)C3CCCCC23)cc1OC (stereo unspecified) :: -7.3
COc1ccc(C2=NN(C3CCCC3)C(=O)C3CC=CCC23)cc1OC (stereo unspecified) :: -9.3

Query block: What does the record list as Log IC50 for COc1ccc(C2=NN(Cc3cccc(O)c3)C(=O)C3CCCCC23)cc1OC (stereo unspecified) ?
Result block: -8

---

- System Tested: Phosphodiesterase 4 (Homo sapiens, UniProt P27815+Q08499+Q07343+Q08493)
- Assay Details: Inhibitory concentration against phosphodiesterase 4 (PDE4) in cytosol of human neutrophils
- Format: protein assay
Measured Parameter: Log IC50
Reply with just the number.

Query block: What does the record list as Log IC50 for CCN1N=C(c2ccc(OC)c(OC)c2)C2CCCCC2C1=O (stereo unspecified) ?
Result block: -7.4

Query block: What does the record list as Log IC50 for COc1cccc(CN2N=C(c3ccc(OC)c(OC)c3)C3CCCCC3C2=O)c1 (stereo unspecified) ?
Result block: -8.5

Query block: What does the record list as Log IC50 for COc1ccc(C2=NN(CCCCCCN)C(=O)C3CCCCC23)cc1OC (stereo unspecified) ?
Result block: -7.1

Query block: What does the record list as Log IC50 for COc1ccc(C2=NN(C3CCCCCC3)C(=O)C3CCCCC23)c2c1OC1(CCCC1)C2 (stereo unspecified) ?
Result block: -9.2

Query block: What does the record list as Log IC50 for COc1ccc(C2=NN(C(C)C)C(=O)C3CCCCC23)cc1OC (stereo unspecified) ?
Result block: -8.6

Query block: What does the record list as Log IC50 for COc1ccc(C2=NN(Cc3ccccn3)C(=O)C3CCCCC23)cc1OC (stereo unspecified) ?
Result block: -7.6

Query block: What does the record list as Log IC50 for COc1ccc(C2=NN(C3CCSCC3)C(=O)C3CC=CCC23)cc1OC (stereo unspecified) ?
Result block: -8.9
